# key: entry, value: IC50
Test system: MDA-MB-231 human breast cancer cell line
Assay Comment: MTT assay of MDA-MB-231 cells
Assay type: cell-based
Experimental Context: Homo sapiens, media containing 5% fetal bovine serum
Assay Endpoint: IC50

{"Compound": "CC(C)=CCC/C(C)=C/CC/C(C)=C/CC[C@]1(C)CCc2c3c(cc(C)c2O1)OCN(CCCCCCCCCCCCO)C3 [Compound 44]", "Endpoint Result": "> 50 µM"}
{"Compound": "CC(C)=CCC/C(C)=C/CC/C(C)=C/CC[C@]1(C)CCc2c3c(c(C)c(C)c2O1)OCN(CCCCCCCCCCO)C3 [Compound 41]", "Endpoint Result": "15.7 µM"}
{"Compound": "CC(C)=CCC/C(C)=C/CC/C(C)=C/CC[C@]1(C)CCc2c3c(c(C)c(C)c2O1)OCN(CCCCCCCCO)C3 [Compound 39]", "Endpoint Result": "> 20 µM"}
{"Compound": "CC(C)=CCC/C(C)=C/CC/C(C)=C/CC[C@]1(C)CCc2c3c(c(C)c(C)c2O1)OCN(CCCCCCCCCCCCO)C3 [Compound 43]", "Endpoint Result": "> 50 µM"}
{"Compound": "CC(C)=CCC/C(C)=C/CC/C(C)=C/CC[C@]1(C)CCc2c3c(c(C)c(C)c2O1)OCN(CCc1ccc(O)cc1)C3 [Compound 26]", "Endpoint Result": "> 5 µM"}
{"Compound": "CC(C)=CCC/C(C)=C/CC/C(C)=C/CC[C@]1(C)CCc2c3c(c(C)c(C)c2O1)OCN(CCCCCCO)C3 [Compound 37]", "Endpoint Result": "> 10 µM"}

###

System: MDA-MB-231 human breast cancer cell line
Assay Comment: MTT assay of MDA-MB-231 cells
Assay type: cell-based
Experimental Context: Homo sapiens, media containing 5% fetal bovine serum

{"Compound Structure String": "CC(C)=CCC/C(C)=C/CC/C(C)=C/CC[C@]1(C)CCc2c3c(cc(C)c2O1)OCN(CCO)C3", "IC50": "> 5 µM"}
{"Compound Structure String": "COc1ccc(CCN2COc3c(C)c(C)c4c(c3C2)CC[C@@](C)(CC/C=C(\\C)CC/C=C(\\C)CCC=C(C)C)O4)cc1OC", "IC50": "> 50 µM"}
{"Compound Structure String": "CC(C)=CCC/C(C)=C/CC/C(C)=C/CC[C@]1(C)CCc2c3c(cc(C)c2O1)OCN(CCCO)C3", "IC50": "> 10 µM"}
{"Compound Structure String": "CC(C)=CCC/C(C)=C/CC/C(C)=C/CC[C@]1(C)CCc2c3c(cc(C)c2O1)OCN(CCc1ccc(O)cc1)C3", "IC50": "> 5 µM"}
{"Compound Structure String": "CC(C)=CCC/C(C)=C/CC/C(C)=C/CC[C@]1(C)CCc2c3c(cc(C)c2O1)OCN(CCCCCCO)C3", "IC50": "> 5 µM"}
{"Compound Structure String": "CC(C)=CCC/C(C)=C/CC/C(C)=C/CC[C@]1(C)CCc2c3c(c(C)c(C)c2O1)OCN(CCCCCO)C3", "IC50": "> 50 µM"}
{"Compound Structure String": "CC(C)=CCC/C(C)=C/CC/C(C)=C/CC[C@]1(C)CCc2c3c(cc(C)c2O1)OCN(CCCCO)C3", "IC50": "> 5 µM"}

Source of measurements: patent US9115145B2
